- Target: T1, murine PRLR (Biacore antigen) (murine, UniProt Q08501 20-229, limits assumed)
- T1 construct: also called muPRLR
- T1 sequence (looked up): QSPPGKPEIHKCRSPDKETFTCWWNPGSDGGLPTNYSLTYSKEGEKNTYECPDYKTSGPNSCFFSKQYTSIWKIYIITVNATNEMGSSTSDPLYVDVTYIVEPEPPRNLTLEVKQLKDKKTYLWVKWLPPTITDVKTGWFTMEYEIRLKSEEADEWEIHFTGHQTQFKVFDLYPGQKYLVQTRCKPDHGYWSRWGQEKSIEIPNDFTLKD
- Assay Comment: SPR Biacore
Reported values of koff for individual entries
Note: unit s⁻¹ is implicit; provide only the numeric part.

Record excerpt, results attached:
[
  {
    "Binder": "chAb7 (antibody, human IgG1, kappa, V domains shown, chimeric, murine variable and human G1/kappa constant regions) VH: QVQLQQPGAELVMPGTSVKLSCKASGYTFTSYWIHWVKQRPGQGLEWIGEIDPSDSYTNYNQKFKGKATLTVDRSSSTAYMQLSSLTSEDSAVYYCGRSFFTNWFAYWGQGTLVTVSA VL: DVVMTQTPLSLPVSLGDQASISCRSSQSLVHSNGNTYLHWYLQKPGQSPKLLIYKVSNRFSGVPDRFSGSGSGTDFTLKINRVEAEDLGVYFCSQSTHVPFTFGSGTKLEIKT",
    "Quantity Unit": "s⁻¹",
    "koff": 0.00357
  },
  {
    "Binder": "Ab30 (antibody, human IgG1, kappa, V domains shown, humanized from Ab5; G1; also called Ab2 HC.1a and Ab2 LC.1a) VH: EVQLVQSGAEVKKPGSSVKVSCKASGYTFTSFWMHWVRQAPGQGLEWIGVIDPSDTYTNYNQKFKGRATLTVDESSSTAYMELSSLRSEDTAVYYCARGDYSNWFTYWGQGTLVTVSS VL: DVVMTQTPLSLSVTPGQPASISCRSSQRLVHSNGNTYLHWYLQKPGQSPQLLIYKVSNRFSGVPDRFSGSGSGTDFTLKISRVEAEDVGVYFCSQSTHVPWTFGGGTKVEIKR",
    "Quantity Unit": "s⁻¹",
    "koff": 0.0056
  },
  {
    "Binder": "chAb8 (antibody, human IgG1, kappa, V domains shown, chimeric, murine variable and human G1/kappa constant regions) VH: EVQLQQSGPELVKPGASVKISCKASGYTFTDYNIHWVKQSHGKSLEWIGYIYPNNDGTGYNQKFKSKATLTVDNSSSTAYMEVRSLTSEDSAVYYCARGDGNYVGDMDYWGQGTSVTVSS VL: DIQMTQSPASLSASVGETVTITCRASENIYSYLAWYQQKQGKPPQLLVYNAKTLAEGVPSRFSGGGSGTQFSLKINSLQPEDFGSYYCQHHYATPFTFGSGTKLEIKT",
    "Quantity Unit": "s⁻¹",
    "koff": 0.0538
  },
  {
    "Binder": "chAb6 (antibody, human IgG1, kappa, V domains shown, chimeric, murine variable and human G1/kappa constant regions) VH: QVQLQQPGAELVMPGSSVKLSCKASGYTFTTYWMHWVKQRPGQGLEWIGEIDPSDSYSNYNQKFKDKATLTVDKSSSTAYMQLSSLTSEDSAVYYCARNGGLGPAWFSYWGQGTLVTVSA VL: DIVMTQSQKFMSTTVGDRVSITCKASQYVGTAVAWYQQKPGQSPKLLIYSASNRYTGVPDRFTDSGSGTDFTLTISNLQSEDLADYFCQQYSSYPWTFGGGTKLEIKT",
    "Quantity Unit": "s⁻¹",
    "koff": 0.36
  },
  {
    "Binder": "Ab6 (antibody, V domains shown, murine monoclonal, isotype G1; also called murine Ab6) VH: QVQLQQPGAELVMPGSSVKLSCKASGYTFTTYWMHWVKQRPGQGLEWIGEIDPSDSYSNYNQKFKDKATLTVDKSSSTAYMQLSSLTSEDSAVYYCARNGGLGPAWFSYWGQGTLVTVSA VL: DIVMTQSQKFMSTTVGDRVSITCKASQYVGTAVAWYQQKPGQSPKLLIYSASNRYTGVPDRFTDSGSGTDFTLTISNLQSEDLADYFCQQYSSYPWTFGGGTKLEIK",
    "Quantity Unit": "s⁻¹",
    "koff": 0.394
  },
  {
    "Binder": "Ab36 (antibody, human IgG1, kappa, V domains shown, humanized from Ab7; G1; also called Ab4 HC.1 and Ab4 LC.1a) VH: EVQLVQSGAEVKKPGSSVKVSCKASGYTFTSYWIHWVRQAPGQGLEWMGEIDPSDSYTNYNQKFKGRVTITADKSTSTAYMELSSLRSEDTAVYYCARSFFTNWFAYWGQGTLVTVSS VL: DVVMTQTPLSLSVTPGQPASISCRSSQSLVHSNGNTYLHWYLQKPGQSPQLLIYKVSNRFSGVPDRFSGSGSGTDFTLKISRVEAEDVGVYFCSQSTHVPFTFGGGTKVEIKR",
    "Quantity Unit": "s⁻¹",
    "koff": 0.0568
  }
]

Below: the item to evaluate.
Sure, the documented koff for Ab5 (antibody, V domains shown, murine monoclonal, isotype G2a; also called murine Ab5) VH: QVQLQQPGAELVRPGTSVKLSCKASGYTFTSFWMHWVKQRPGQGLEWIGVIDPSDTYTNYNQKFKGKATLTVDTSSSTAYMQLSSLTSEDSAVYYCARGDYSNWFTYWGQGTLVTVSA VL: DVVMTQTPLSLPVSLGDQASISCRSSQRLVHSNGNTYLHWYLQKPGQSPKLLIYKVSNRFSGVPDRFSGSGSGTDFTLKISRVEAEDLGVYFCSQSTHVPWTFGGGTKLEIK is 0.00291
